Target: BACE-1 (Homo sapiens, UniProt P56817)
Construct: endogenous in cells; host or cells: HEK-293 cells stably transfected with wild type APP695
Sequence (P56817 46-501): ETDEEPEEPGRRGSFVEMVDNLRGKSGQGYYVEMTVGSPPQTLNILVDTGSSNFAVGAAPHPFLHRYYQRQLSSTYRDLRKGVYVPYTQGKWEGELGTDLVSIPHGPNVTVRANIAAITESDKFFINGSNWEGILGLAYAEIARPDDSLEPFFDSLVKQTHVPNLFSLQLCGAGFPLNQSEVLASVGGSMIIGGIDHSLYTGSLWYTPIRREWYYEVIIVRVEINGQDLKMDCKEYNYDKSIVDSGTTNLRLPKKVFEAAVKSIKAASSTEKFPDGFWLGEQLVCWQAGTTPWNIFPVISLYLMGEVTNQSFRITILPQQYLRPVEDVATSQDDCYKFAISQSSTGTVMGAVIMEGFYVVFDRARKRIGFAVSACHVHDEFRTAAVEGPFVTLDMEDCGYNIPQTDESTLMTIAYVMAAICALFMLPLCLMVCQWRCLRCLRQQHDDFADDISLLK
Experiment: Cellular BACE-1 inhibition assay (in vitro cellular Amyloidβ 1-40 production, HTRF immunoassay)
Format: cell-based
Details: inhibition of Amyloidβ 1-40 production; HEK-293 cells stably transfected with wild type APP695; 48 hours incubation; average where tested more than once; read-out: IC50
pIC50: −log10 of the molar value.

COMPOUND: NC1=NC2(CO1)c1cc(-c3cccnc3F)ccc1OC1CCN(CC(F)(F)F)C[C@@H]12 (mixture of isomers)
pIC50: 6.52
--
COMPOUND: CCOCC1CCC2Oc3ccc(-c4cncc(Cl)c4)cc3C3(COC(N)=N3)[C@H]2O1 (stereo in doubt)
pIC50: 6.38
--
COMPOUND: CN1C(=O)CC2(N=C1N)c1cc(-c3cc(F)cc(Cl)c3)ccc1OC1CC(=O)CCC12 (stereo not shown)
pIC50: 5.93
--
COMPOUND: NC1=N[C@@]2(CO1)c1cc(-c3cccnc3F)ccc1O[C@H]1CCN(C(=O)CC3CC3)C[C@@H]12 (relative stereo)
pIC50: 6.34
--
COMPOUND: NC1=NC2(CO1)c1cc(NC(=O)c3ccc(Br)cn3)ccc1OC1CCCCC12 (racemic)
pIC50: 6.83
--
COMPOUND: CN1C(=O)CC2(N=C1N)c1cc(-c3cc(F)cc(Cl)c3)ccc1OC1CC3(CCC12)OCCO3 (stereo not shown)
pIC50: 5.51
--
COMPOUND: C[C@H]1OCCC2Oc3ccc(-c4cncc(Cl)c4)cc3[C@@]3(COC(N)=N3)[C@@H]21 (relative stereo)
pIC50: 5.87
